Tested on: MDA-MB-436
method-description: normalised response (% of control), CellTox Green; higher = less cell death (100 = DMSO, 0 = benzethonium chloride kill control)
condition-notes: incubation time: 72 h
# reported normalised response; entries follow

compound	unit-name	normalised response
CC(C)c1c(C(=O)Nc2ccccc2)c(-c2ccccc2)c(-c2ccc(F)cc2)n1CC[C@@H](O)C[C@@H](O)CC(=O)O [Atorvastatin] (10000 nM)	%	83
CC(C)(C#N)c1cc(Cn2cncn2)cc(C(C)(C)C#N)c1 [Anastrozole] (1000 nM)	%	103
COc1ccc(-c2ccc3c(N4CCOC[C@@H]4C)nc(N4CCOC[C@@H]4C)nc3n2)cc1CO [AZD8055] (100 nM)	%	97.7
CCCCCCCCc1ccc(CCC(N)(CO)CO)cc1 [Fingolimod] (1000 nM)	%	90.6
CO[C@H]1C[C@@H]2CC[C@@H](C)[C@@](O)(O2)C(=O)C(=O)N2CCCC[C@H]2C(=O)O[C@H]([C@H](C)C[C@@H]2CC[C@@H](OCCO)[C@H](OC)C2)CC(=O)[C@H](C)/C=C(\C)[C@@H](O)[C@@H](OC)C(=O)[C@H](C)C[C@H](C)/C=C/C=C/C=C/1C [Everolimus] (100 nM)	%	99.7
Nc1ncnc2c1c(COc1cccc(Cl)c1)nn2C1CCOCC1 (10000 nM)	%	79.2
COc1ccccc1S(=O)(=O)Nc1ccc2c(c1)CN(C)C(=O)N2 [PFI-1] (1000 nM)	%	115

====

Reported drug sensitivity score values are given for each entry in this list.
Tested on: HDQ-P1
method-description: drug sensitivity score (DSS), CellTiter-Blue viability (DSS (AUC-based score)); higher = stronger viability inhibition; extreme values may be limits of the assay
condition-notes: incubation time: 72 h

compound	drug sensitivity score
CCCCCCCCc1ccc(CCC(N)(CO)CO)cc1	3.07
CN(C)C[C@@H]1CCn2cc(c3ccccc32)C2=C(C(=O)NC2=O)c2cn(c3ccccc23)CCO1	3.47
CC(C)(C#N)c1cc(Cn2cncn2)cc(C(C)(C)C#N)c1	0
C[C@]12CC[C@H](O)CC1=CC[C@@H]1[C@@H]2CC[C@]2(C)C(c3cccnc3)=CC[C@@H]12	0
O=C1NC(=O)[C@@H](c2cn3c4c(cccc24)CCC3)[C@@H]1c1c[nH]c2ccccc12 [Tivantinib]	0

====

Tested on: DU-4475
method-description: normalised response (% of control), CellTiter-Glo; higher = more viable cells (100 = DMSO, 0 = benzethonium chloride kill control)
condition-notes: incubation time: 72 h
Entries and their normalised response

compound	normalised response, %
CO[C@H]1C[C@@H]2CC[C@@H](C)[C@@](O)(O2)C(=O)C(=O)N2CCCC[C@H]2C(=O)O[C@H]([C@H](C)C[C@@H]2CC[C@@H](OCCO)[C@H](OC)C2)CC(=O)[C@H](C)/C=C(\C)[C@@H](O)[C@@H](OC)C(=O)[C@H](C)C[C@H](C)/C=C/C=C/C=C/1C [Everolimus] (0.01 nM)	98.7
CC(C)c1c(C(=O)Nc2ccccc2)c(-c2ccccc2)c(-c2ccc(F)cc2)n1CC[C@@H](O)C[C@@H](O)CC(=O)O [Atorvastatin] (1000 nM)	99.9
CO[C@H]1C[C@@H]2CC[C@@H](C)[C@@](O)(O2)C(=O)C(=O)N2CCCC[C@H]2C(=O)O[C@H]([C@H](C)C[C@@H]2CC[C@@H](OCCO)[C@H](OC)C2)CC(=O)[C@H](C)/C=C(\C)[C@@H](O)[C@@H](OC)C(=O)[C@H](C)C[C@H](C)/C=C/C=C/C=C/1C [Everolimus] (10 nM)	68.2
CN(C)C[C@@H]1CCn2cc(c3ccccc32)C2=C(C(=O)NC2=O)c2cn(c3ccccc23)CCO1 [Ruboxistaurin] (10 nM)	95.3
c1ccc([C@H]2CN3CCSC3=N2)cc1 [Levamisole] (10 nM)	103
CC(C)(C#N)c1cc(Cn2cncn2)cc(C(C)(C)C#N)c1 [Anastrozole] (1 nM)	105
